Where do these numbers come from? They come from patent US7118895B2.

Test system: Crude diglycosidase
Assay: Examination of pH in the conversion into isoflavone aglycons by diglycosidase using soybean materials
Type: biochemical, Penicillium multicolor IAM7153
Settings: pH5, heat treatment of enzyme no, reaction time 6 h, 55° C.
measured-quantity: Decomposition efficiency of daidzin family in roasted soy flour
Lab note: jot the number down without any unit.

CC(=O)OC[C@H]1O[C@@H](Oc2ccc3c(=O)c(-c4ccc(O)cc4)coc3c2)[C@H](O)[C@@H](O)[C@@H]1O [acetyldaidzin, 6″-O-acetyldaidzin]    15.2

Here's the next entry for you.
O=c1c(-c2ccc(O)cc2)coc2cc(O)ccc12 [daidzein] yielded Decomposition efficiency of daidzin family in roasted soy flour of 84.8

====

System: Crude diglycosidase
Assay: Examination of temperature in the conversion into isoflavone aglycons by diglycosidase using soybean materials
Assay type: biochemical, Penicillium multicolor IAM7153
Settings: 65° C., heat treatment of enzyme no, reaction time 0 h
measured-quantity: Decomposition efficiency of genistin family in defatted soybean (%)
# number only, unit % dropped from output

// solved cases for Decomposition efficiency of genistin family in defatted soybean follow
O=c1c(-c2ccc(O)cc2)coc2cc(O)cc(O)c12    14.5
O=c1c(-c2ccc(O)cc2)coc2cc(O[C@@H]3O[C@H](CO)[C@@H](O)[C@H](O)[C@H]3O)cc(O)c12    37.0
CC(=O)OC[C@H]1O[C@@H](Oc2cc(O)c3c(=O)c(-c4ccc(O)cc4)coc3c2)[C@H](O)[C@@H](O)[C@@H]1O    1.5

Here's the next entry for you.
O=C(O)CC(=O)OC[C@H]1O[C@@H](Oc2cc(O)c3c(=O)c(-c4ccc(O)cc4)coc3c2)[C@H](O)[C@@H](O)[C@@H]1O yielded Decomposition efficiency of genistin family in defatted soybean of 47.0

====

System: Crude diglycosidase
Test: Examination of substrate concentration in the conversion into isoflavone aglycons by diglycosidase using soybean materials
Format: biochemical, Penicillium multicolor IAM7153
Details: substrate concentration 10%, heat treatment of enzyme no, reaction time 3 h
measured-quantity: Decomposition efficiency of genistin family in defatted soybean
Lab note: jot the number down without any unit.

// solved cases for Decomposition efficiency of genistin family in defatted soybean follow
O=c1c(-c2ccc(O)cc2)coc2cc(O)cc(O)c12    64.0
O=C(O)CC(=O)OC[C@H]1O[C@@H](Oc2cc(O)c3c(=O)c(-c4ccc(O)cc4)coc3c2)[C@H](O)[C@@H](O)[C@@H]1O    35.1

Here's the next entry for you.
CC(=O)OC[C@H]1O[C@@H](Oc2cc(O)c3c(=O)c(-c4ccc(O)cc4)coc3c2)[C@H](O)[C@@H](O)[C@@H]1O yielded Decomposition efficiency of genistin family in defatted soybean of 0.9

====

System: Crude diglycosidase
Test: Examination of substrate concentration in the conversion into isoflavone aglycons by diglycosidase using soybean materials;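 on Decomposition efficiency: ratio of each glycoside/aglycon within its isoflavone family: percent of the isoflavone family total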
Assay type: biochemical, Penicillium multicolor IAM7153
Conditions: roasted soy flour, substrate concentration 30%, heat treatment of enzyme no, reaction time 0 h
# Decomposition efficiency: ratio of each glycoside/aglycon within its isoflavone family annotations
# number only, unit % dropped from output

// solved cases for Decomposition efficiency: ratio of each glycoside/aglycon within its isoflavone family follow
COc1cc2c(=O)c(-c3ccc(O)cc3)coc2cc1O[C@@H]1O[C@H](COC(C)=O)[C@@H](O)[C@H](O)[C@H]1O    35.3
O=c1c(-c2ccc(O)cc2)coc2cc(O[C@@H]3O[C@H](CO)[C@@H](O)[C@H](O)[C@H]3O)ccc12    47.7
CC(=O)OC[C@H]1O[C@@H](Oc2cc(O)c3c(=O)c(-c4ccc(O)cc4)coc3c2)[C@H](O)[C@@H](O)[C@@H]1O    46.7
CC(=O)OC[C@H]1O[C@@H](Oc2ccc3c(=O)c(-c4ccc(O)cc4)coc3c2)[C@H](O)[C@@H](O)[C@@H]1O    47.6

COc1cc2c(=O)c(-c3ccc(O)cc3)coc2cc1O yielded Decomposition efficiency: ratio of each glycoside/aglycon within its isoflavone family of 8.8

O=c1c(-c2ccc(O)cc2)coc2cc(O[C@@H]3O[C@H](CO)[C@@H](O)[C@H](O)[C@H]3O)cc(O)c12 yielded Decomposition efficiency: ratio of each glycoside/aglycon within its isoflavone family of 49.4

COc1cc2c(=O)c(-c3ccc(O)cc3)coc2cc1O[C@@H]1O[C@H](CO)[C@@H](O)[C@H](O)[C@H]1O yielded Decomposition efficiency: ratio of each glycoside/aglycon within its isoflavone family of 55.9

====

Test system: Crude diglycosidase
Assay: Examination of pH in the conversion into isoflavone aglycons by diglycosidase using soybean materials
Type: biochemical, Penicillium multicolor IAM7153
Details: pH4.8; heat treatment of enzyme: no; reaction time 1 h
# Decomposition efficiency of glycitin family in defatted soybean annotations
# number only, unit % dropped from output

COc1cc2c(=O)c(-c3ccc(O)cc3)coc2cc1O[C@@H]1O[C@H](COC(=O)CC(=O)O)[C@@H](O)[C@H](O)[C@H]1O    40.1

Here's the next entry for you.
COc1cc2c(=O)c(-c3ccc(O)cc3)coc2cc1O yielded Decomposition efficiency of glycitin family in defatted soybean of 59.9

====

Tested on: Crude diglycosidase
Experiment: Examination of substrate concentration in the conversion into isoflavone aglycons by diglycosidase using soybean materials;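 on Decomposition efficiency: ratio of each glycoside/aglycon within its isoflavone family: percent of the isoflavone family total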
Format: biochemical, Penicillium multicolor IAM7153
Conditions: roasted soy flour, substrate concentration 2%, heat treatment of enzyme no, reaction time 6 h
measured-quantity: Decomposition efficiency: ratio of each glycoside/aglycon within its isoflavone family

// solved cases for Decomposition efficiency: ratio of each glycoside/aglycon within its isoflavone family follow
O=c1c(-c2ccc(O)cc2)coc2cc(O[C@@H]3O[C@H](CO)[C@@H](O)[C@H](O)[C@H]3O)ccc12 [daidzin]    not detected
O=C(O)CC(=O)OC[C@H]1O[C@@H](Oc2cc(O)c3c(=O)c(-c4ccc(O)cc4)coc3c2)[C@H](O)[C@@H](O)[C@@H]1O [malonylgenistin, 6″-O-malonylgenistin]    not detected
COc1cc2c(=O)c(-c3ccc(O)cc3)coc2cc1O[C@@H]1O[C@H](COC(C)=O)[C@@H](O)[C@H](O)[C@H]1O [acetylglycitin, 6″-O-acetylglycitin]    not detected
COc1cc2c(=O)c(-c3ccc(O)cc3)coc2cc1O[C@@H]1O[C@H](COC(=O)CC(=O)O)[C@@H](O)[C@H](O)[C@H]1O [malonylglycitin, 6″-O-malonylglycitin]    not detected

Fill in: Crude diglycosidase Decomposition efficiency: ratio of each glycoside/aglycon within its isoflavone family for CC(=O)OC[C@H]1O[C@@H](Oc2cc(O)c3c(=O)c(-c4ccc(O)cc4)coc3c2)[C@H](O)[C@@H](O)[C@@H]1O [acetylgenistin, 6″-O-acetylgenistin] = 1.5%

Fill in: Crude diglycosidase Decomposition efficiency: ratio of each glycoside/aglycon within its isoflavone family for COc1cc2c(=O)c(-c3ccc(O)cc3)coc2cc1O [glycitein] = 100.0%

Fill in: Crude diglycosidase Decomposition efficiency: ratio of each glycoside/aglycon within its isoflavone family for COc1cc2c(=O)c(-c3ccc(O)cc3)coc2cc1O[C@@H]1O[C@H](CO)[C@@H](O)[C@H](O)[C@H]1O [glycitin] = not detected

Fill in: Crude diglycosidase Decomposition efficiency: ratio of each glycoside/aglycon within its isoflavone family for O=C(O)CC(=O)OC[C@H]1O[C@@H](Oc2ccc3c(=O)c(-c4ccc(O)cc4)coc3c2)[C@H](O)[C@@H](O)[C@@H]1O [malonyldaidzin, 6″-O-malonyldaidzin] = not detected

Fill in: Crude diglycosidase Decomposition efficiency: ratio of each glycoside/aglycon within its isoflavone family for O=c1c(-c2ccc(O)cc2)coc2cc(O[C@@H]3O[C@H](CO)[C@@H](O)[C@H](O)[C@H]3O)cc(O)c12 [genistin] = not detected

Fill in: Crude diglycosidase Decomposition efficiency: ratio of each glycoside/aglycon within its isoflavone family for CC(=O)OC[C@H]1O[C@@H](Oc2ccc3c(=O)c(-c4ccc(O)cc4)coc3c2)[C@H](O)[C@@H](O)[C@@H]1O [acetyldaidzin, 6″-O-acetyldaidzin] = not detected

====

# Decomposition efficiency of daidzin family in roasted soy flour annotations
System: Crude diglycosidase
Assay: Examination of pH in the conversion into isoflavone aglycons by diglycosidase using soybean materials
Assay type: biochemical, Penicillium multicolor IAM7153
Settings: pH3, heat treatment of enzyme yes, reaction time 6 h, 55° C.
Lab note: jot the number down without any unit.

// solved cases for Decomposition efficiency of daidzin family in roasted soy flour follow
CC(=O)OC[C@H]1O[C@@H](Oc2ccc3c(=O)c(-c4ccc(O)cc4)coc3c2)[C@H](O)[C@@H](O)[C@@H]1O [acetyldaidzin, 6″-O-acetyldaidzin]    47.4
O=c1c(-c2ccc(O)cc2)coc2cc(O[C@@H]3O[C@H](CO)[C@@H](O)[C@H](O)[C@H]3O)ccc12 [daidzin]    49.0

Here's the next entry for you.
Fill in: Crude diglycosidase Decomposition efficiency of daidzin family in roasted soy flour for O=c1c(-c2ccc(O)cc2)coc2cc(O)ccc12 [daidzein] = 3.7

====

Test system: Crude diglycosidase
Assay: Examination of pH in the conversion into isoflavone aglycons by diglycosidase using soybean materials
Format: biochemical, Penicillium multicolor IAM7153
Conditions: pH11.6; heat treatment of enzyme: no; reaction time 6 h
Experimental: A substrate solution of 450 μL was prepared by suspending 50 mg of each soybean material (roasted soy flour (manufactured by Fuji Shokuryo K.K.), soymilk (manufactured by Gitoh Shokuhin K.K.), defatted soybean (manufactured by Fuji Seiyu K.K.), concentrated soybean protein (manufactured by Fuji Seiyu K.K.)), and adjusting the pH to 2 to 11 with hydrochloric acid or sodium hydroxide. […]
# Decomposition efficiency of daidzin family in soymilk annotations
# number only, unit % dropped from output

O=C(O)CC(=O)OC[C@H]1O[C@@H](Oc2ccc3c(=O)c(-c4ccc(O)cc4)coc3c2)[C@H](O)[C@@H](O)[C@@H]1O    47.7

Here's the next entry for you.
O=c1c(-c2ccc(O)cc2)coc2cc(O)ccc12 yielded Decomposition efficiency of daidzin family in soymilk of 52.3
